# target.system: PIK3CA (human) (UniProt P42336)
# Sequence (P42336 whole entry, looked up): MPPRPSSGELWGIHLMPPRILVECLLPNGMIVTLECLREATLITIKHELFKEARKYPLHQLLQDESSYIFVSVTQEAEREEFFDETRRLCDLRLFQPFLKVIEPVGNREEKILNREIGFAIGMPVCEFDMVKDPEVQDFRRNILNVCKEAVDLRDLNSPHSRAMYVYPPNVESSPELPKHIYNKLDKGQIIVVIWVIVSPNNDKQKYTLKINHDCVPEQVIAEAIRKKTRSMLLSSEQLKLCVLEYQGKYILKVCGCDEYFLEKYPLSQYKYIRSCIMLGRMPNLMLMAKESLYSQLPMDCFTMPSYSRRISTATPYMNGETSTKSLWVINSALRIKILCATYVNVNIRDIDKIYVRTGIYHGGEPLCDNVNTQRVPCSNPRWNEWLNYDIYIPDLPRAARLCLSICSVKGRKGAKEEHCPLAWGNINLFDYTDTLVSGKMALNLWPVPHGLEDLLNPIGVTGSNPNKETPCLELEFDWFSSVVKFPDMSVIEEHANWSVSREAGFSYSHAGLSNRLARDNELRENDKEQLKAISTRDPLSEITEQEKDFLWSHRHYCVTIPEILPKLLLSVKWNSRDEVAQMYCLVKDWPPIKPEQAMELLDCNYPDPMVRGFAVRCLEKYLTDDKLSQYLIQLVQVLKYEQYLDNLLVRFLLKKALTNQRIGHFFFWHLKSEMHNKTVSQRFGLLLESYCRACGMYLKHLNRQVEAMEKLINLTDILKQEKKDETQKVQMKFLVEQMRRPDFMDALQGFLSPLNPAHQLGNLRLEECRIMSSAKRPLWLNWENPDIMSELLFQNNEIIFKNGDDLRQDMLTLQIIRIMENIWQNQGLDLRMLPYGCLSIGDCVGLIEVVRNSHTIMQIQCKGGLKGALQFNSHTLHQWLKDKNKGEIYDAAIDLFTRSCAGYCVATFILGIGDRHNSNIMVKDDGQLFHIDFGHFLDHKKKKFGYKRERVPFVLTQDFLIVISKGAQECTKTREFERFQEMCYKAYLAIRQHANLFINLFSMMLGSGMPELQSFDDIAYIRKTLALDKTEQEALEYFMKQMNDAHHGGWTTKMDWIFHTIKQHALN
# method: Cell-Based Assay
# condition.set: t47d
quantity.kind: IC50

Cc1cn(-c2cnc3ccc(-c4ccc5oc(N)nc5c4)cc3n2)cn1 | > 10 µM
Nc1nc2cc(-c3ccc4nccc(-c5ccncc5)c4c3)ccc2o1 | 0.1 to 1 µM
CCN(CC)CC(=O)N1CCN(c2cnc3ccc(-c4ccc5oc(N)nc5c4)cc3n2)CC1 | 0.1 to 1 µM
Nc1nc2cc(-c3ccc4ncc(N5CC(N6CCOCC6)C5)nc4c3)ccc2o1 | 0.1 to 1 µM
C[C@@H]1CN(C(=O)C2CN(c3cnc4ccc(-c5ccc6oc(N)nc6c5)cc4n3)C2)CCN1 | 0.1 to 1 µM

// lookup IC50 for CN1CCN(C(=O)C2CN(c3cnc4ccc(-c5ccc6oc(N)nc6c5)cc4n3)C2)CC1
0.1 to 1 µM

So what's the measured IC50 for this one? Nc1nc2cc(-c3ccc4ncc(N5CC(N6CCS(=O)(=O)CC6)C5)nc4c3)ccc2o1
0.1 to 1 µM

Name the reported IC50 value associated with the molecule CN1CCC(Nc2ncnc3ccc(-c4ccc5oc(N)nc5c4)nc23)CC1
0.1 to 1 µM

Could you tell me which IC50 is on file for Nc1nc2cc(-c3ccc4ncc(N5CCN(C(=O)[C@@H]6CCCN6)CC5)nc4c3)ccc2o1 ?
0.1 to 1 µM

# query: IC50 of entry CN1CCN(C2CN(c3cnc4ccc(-c5ccc6oc(N)nc6c5)cc4n3)C2)CC1
0.1 to 1 µM

Reported IC50 for Nc1nc2cc(-c3ccc4ncc(N5CCN(C(=O)[C@H](N)CO)CC5)nc4c3)ccc2o1 : what is it?
0.1 to 1 µM

// returns reported IC50 for input CS(=O)(=O)N1CCN(C(=O)c2cnc3ccc(-c4ccc5oc(N)nc5c4)cn23)CC1
0.1 to 1 µM

Looking for the measured IC50 of Nc1nc2cc(-c3ccc4ncc(C(=O)NCCCN5CCCC5)n4c3)ccc2o1 , can you help?
0.1 to 1 µM

// query IC50 value for entry CC(=O)N1CCC(N(C)c2ncnc3ccc(-c4ccc5oc(N)nc5c4)cc23)CC1
0.1 to 1 µM

Tell me the measured IC50 of Nc1nc2cc(-c3ccc4ncc(N5CC(C(=O)N6CCN(C7CC7)CC6)C5)nc4c3)ccc2o1 , please.
0.1 to 1 µM

May I ask what IC50 has been recorded for CN(C)CC(=O)N1CCN(c2cnc3ccc(-c4ccc5oc(N)nc5c4)cc3n2)CC1 ?
0.1 to 1 µM

Would you mind telling me what IC50 value was observed for CC1CN(c2cnc3ccc(-c4ccc5oc(N)nc5c4)cc3n2)CCN1 (stereo not given) ?
> 10 µM

Which IC50 value is on record for Nc1nc2cc(-c3ccc4ncc(N5CCCCC5)nc4c3)ccc2o1 ?
> 10 µM

What value of IC50 has been recorded for this entry: CC(C)N1CCN(C(=O)C2CN(c3cnc4ccc(-c5ccc6oc(N)nc6c5)cc4n3)C2)CC1
0.1 to 1 µM

GET /values?readout=IC50&item= Nc1nc2cc(-c3ccc4ncc(N5CCC(N6CCOCC6)CC5)nc4c3)ccc2o1
0.1 to 1 µM
